The reported numbers originate from patent US20090029995A1.

pIC50: −log10 of the molar value.
Here's what we have: pIC50 numbers for MMP-1 full-length (Homo sapiens, UniProt P03956).

So the reported pIC50 for O=C(O)c1ccc(Cc2nnc(-c3cccc(C#CCc4ccc(F)cc4)c3)s2)cc1 , on MMP-1 full-length (Homo sapiens, UniProt P03956), turned out to be < 4.52

# input for lookup
So the reported pIC50 for O=C(O)c1ccc(Cn2nnc(-c3ccnc(C(=O)NCc4ccc(F)cc4)c3)n2)cc1 , on MMP-1 full-length (Homo sapiens, UniProt P03956), turned out to be < 4.00

---

# target_of_assay: MMP-14 catalytic domain (Homo sapiens, UniProt P50281)
experimental_endpoint: pIC50
Convention used: pIC50 is expressed as -log10 of the molar concentration.

// sample O=C(O)c1ccc(Cc2nnc(-c3cccc(C#CCc4ccc(F)cc4)c3)s2)cc1 [Example C2] , its pIC50 was 4.57

---

# target_of_assay: MMP-17 catalytic domain (Homo sapiens)
# Sequence (Q9ULZ9 126-295 limits assumed): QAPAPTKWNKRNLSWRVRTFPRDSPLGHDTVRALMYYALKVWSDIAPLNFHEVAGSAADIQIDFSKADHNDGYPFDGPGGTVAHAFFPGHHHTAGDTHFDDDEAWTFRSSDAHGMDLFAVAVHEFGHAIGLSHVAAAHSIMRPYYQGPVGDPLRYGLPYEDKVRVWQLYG
experimental_endpoint: IC50

// sample COc1ccc(CC#Cc2cncc(-c3nnn(Cc4ccc(C(=O)O)cc4)n3)c2)cc1 , its IC50 was > 100 µM

---

experimental_endpoint: melting point

// sample CS(=O)(=O)c1ccc(Cn2nnc(-c3ccnc(C(=O)NCc4ccc(Oc5ccccc5)cc4)c3)n2)cc1 [Example F8] , its melting point was 100 to 103 °C

---

# target_of_assay: MMP-7 full-length (Homo sapiens, UniProt P09237)
# Sequence (P09237 95-267): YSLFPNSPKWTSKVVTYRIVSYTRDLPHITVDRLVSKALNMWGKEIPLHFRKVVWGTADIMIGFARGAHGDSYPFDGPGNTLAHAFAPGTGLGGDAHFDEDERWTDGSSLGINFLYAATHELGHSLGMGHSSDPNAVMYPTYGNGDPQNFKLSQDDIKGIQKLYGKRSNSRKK
# assay_explanation: MMP-7 full-length inhibition (thiopeptolide substrate hydrolysis)
# Format: biochemical
experimental_endpoint: pIC50
Convention used: pIC50 is expressed as -log10 of the molar concentration.

// sample O=C(O)c1ccc(Cc2nnc(-c3cccc(C#CCc4ccc(F)cc4)c3)s2)cc1 , its pIC50 was 5.10

---

Below, each entry is listed with its recorded melting point.
Where a name gives a salt, the structure may show the parent alone.

// sample COc1cc(CNC(=O)c2cccc(-c3nnn(Cc4ccc(C(=O)O)cc4)n3)c2)ccn1 (as salt: TFA) , its melting point was 228 °C (dec.)

// sample CS(=O)(=O)c1ccc(Cn2nnc(-c3ccnc(C(=O)NC4CCc5ccccc54)c3)n2)cc1 (centres unmarked) , its melting point was 147 to 150 °C

// sample O=C(O)c1ccc(Cn2nnc(-c3cccc(C#Cc4ccccc4)c3)n2)cc1 , its melting point was 226 to 228 °C

// sample COc1ccc(Cn2nnc(-c3cccc(C(=O)NCc4ccnc(OC)c4)c3)n2)cc1 , its melting point was 166 to 169 °C

// sample O=S(=O)(O)c1ccc(Cn2nnc(-c3cccc(C#CCc4ccc(F)cc4)c3)n2)cc1 [Example D1] , its melting point was 151 to 152 °C

// sample NS(=O)(=O)c1ccc(Cn2nnc(-c3cccc(C#CCc4ccccc4)c3)n2)cc1 , its melting point was 158 to 159 °C

// sample N#Cc1ccc(Cn2nnc(-c3ccnc(C(=O)NCc4ccncc4)c3)n2)cc1 , its melting point was 178 to 179 °C

// sample COc1ccc(Cn2nnc(-c3cccc(C(=O)NCc4ccccc4)c3)n2)cc1 , its melting point was 169 to 170 °C

// sample C/C=C/Cn1nnc(-c2cccc(C(=O)NCc3ccc(C(=O)OC)cc3)c2)n1 , its melting point was 107 to 108 °C

// sample COC(=O)c1ccc(CNC(=O)c2cccc(-c3nnn(Cc4nccs4)n3)c2)cc1 , its melting point was 158 to 160 °C

Next:
// sample CS(=O)(=O)c1ccc(Cn2nnc(-c3cccc(C#CCc4ccc(F)cc4)c3)n2)cc1 , its melting point was 101 to 104 °C

// sample COc1ccc(Cn2nnc(-c3cccc(C(=O)NCc4ccc(F)c(Cl)c4)c3)n2)cc1 , its melting point was 150 to 151 °C

// sample COc1ccc(CNC(=O)c2cccc(-c3nnn(Cc4ccc(OC)cc4)n3)c2)cc1 , its melting point was 159 to 160 °C

// sample COc1ccc(Cn2nnc(-c3cccc(C(=O)NCc4nccs4)c3)n2)cc1 , its melting point was 143 to 145 °C

// sample O=C(O)c1ccc(Cn2nnc(-c3cccc(C#CCc4ccc(F)cc4)c3)n2)cc1 , its melting point was 210 to 212 °C

// sample COc1ccc(Cn2nnc(-c3cccc(C(=O)NCc4ccc5nsnc5c4)c3)n2)cc1 , its melting point was 207 to 208 °C

// sample O=C(O)c1ccc(Cn2nnc(-c3cccc(C#CCCc4ccccc4)c3)n2)cc1 , its melting point was 198 to 199 °C

---

Below, each entry is listed with its recorded melting point.

// sample COc1cccc(Cn2nnc(-c3cccc(C(=O)NCc4ccc(C(=O)O)cc4)c3)n2)c1 , its melting point was 204 to 206 °C

// sample O=C(O)COc1ccc(Cn2nnc(-c3cccc(C#CCc4ccc(F)cc4)c3)n2)cc1 , its melting point was 158.2 to 159.6 °C

// sample COc1ccc(CNC(=O)c2cc(-c3nnn(Cc4ccc(S(C)(=O)=O)cc4)n3)ccn2)cc1 , its melting point was 145 to 146 °C

// sample O=C(O)C1CCC(Cn2nnc(-c3cccc(C#CCc4ccc(F)cc4)c3)n2)CC1 (centres unmarked) , its melting point was 172 to 173 °C

// sample O=C(O)c1ccc(Cn2nnc(-c3ccnc(C(=O)NCc4ccc(F)cc4)c3)n2)cc1 , its melting point was 193 to 194 °C

// sample N#Cc1ccc(Cn2nnc(-c3cccc(C(=O)NCc4ccccc4)c3)n2)cc1 , its melting point was 191 to 192 °C

---

experimental_endpoint: melting point

// sample CS(=O)(=O)c1ccc(Cn2nnc(-c3ccnc(C(=O)NCc4cncnc4)c3)n2)cc1 , its melting point was 178 to 179 °C

Next:
// sample CS(=O)(=O)c1ccc(Cn2nnc(-c3ccnc(C(=O)NCc4ccncc4)c3)n2)cc1 , its melting point was 143 to 144 °C

// sample COc1ccc(Cn2nnc(-c3cccc(C(=O)NCc4ccncc4)c3)n2)cc1 , its melting point was 163 to 164 °C

// sample O=C(O)c1ccc(CNC(=O)c2cccc(-c3nnn(Cc4ccc(F)cc4)n3)c2)cc1 , its melting point was 222 to 224 °C

// sample COC(=O)c1ccc(CNC(=O)c2cccc(-c3nnn(Cc4cccc(OC)c4)n3)c2)cc1 , its melting point was 153 to 154 °C

// sample CC(C)CC#Cc1cccc(-c2nnn(Cc3ccc(C(=O)O)cc3)n2)c1 , its melting point was 192 to 193 °C

// sample COC(=O)c1ccc(CNC(=O)c2cc(-c3nnn(Cc4ccc(OC)cc4)n3)ccc2OC)cc1 , its melting point was 177 to 178 °C

---

Below, each entry is listed with its recorded melting point.

Examples with their reported melting point follow.
// sample C/C=C/Cn1nnc(-c2cccc(C(=O)NCc3ccccc3)c2)n1 [Example 27] , its melting point was 100 to 101 °C

// sample COc1ccc(Cn2nnc(-c3ccc(OC)c(C(=O)NCc4ccc(C(=O)O)cc4)c3)n2)cc1 [Example 36] , its melting point was 207 to 209 °C

// sample O=C(O)Cc1ccc(Cn2nnc(-c3cccc(C#CCc4ccc(F)cc4)c3)n2)cc1 [Example I1] , its melting point was 158 to 159 °C

// sample COc1ccc(Cn2nnc(-c3cccc(C(=O)NCc4ccc(CN5CCOCC5)cc4)c3)n2)cc1 [Example 12] , its melting point was 161 to 162 °C

Next:
// sample O=C(O)c1ccc(CNC(=O)c2cccc(-c3nnn(Cc4cccc(F)c4)n3)c2)cc1 [Example 8] , its melting point was 217 to 219 °C

// sample CS(=O)(=O)c1ccc(Cn2nnc(-c3ccnc(C(=O)NCc4cccnc4)c3)n2)cc1 [Example F7] , its melting point was 174 to 175 °C

// sample COc1ccc(Cn2nnc(-c3cccc(C(=O)NCc4cccc(C(F)(F)F)c4)c3)n2)cc1 [Example 14] , its melting point was 162 to 163 °C

// sample O=C(O)c1ccc(Cn2nnc(-c3cncc(C#CCc4ccccc4)c3)n2)cc1 [Example H1] , its melting point was 211 to 213 °C

// sample CS(=O)(=O)c1ccc(Cn2nnc(-c3ccnc(C(=O)NCc4ccc(Cl)c(Cl)c4)c3)n2)cc1 [Example F10] , its melting point was 150 to 152 °C

// sample COc1ccc(Cn2nnc(-c3ccc(OC)c(C(=O)NCc4ccc(C(F)(F)F)cc4)c3)n2)cc1 [Example 37] , its melting point was 188 to 190 °C

// sample CS(=O)(=O)c1ccc(Cn2nnc(-c3ccnc(C(=O)NCc4ccc(-n5cccn5)cc4)c3)n2)cc1 [Example F11] , its melting point was 173 to 174 °C
